Just for reference, ChEMBL document CHEMBL1129505 is where these values come from.

molecular target: Aromatase (Homo sapiens); assay: Apparent inhibition constant (Ki) Cytochrome P450 19A1; settings: read-out: Ki app
MEASUREMENT LABEL: Ki
Could you give the number and then its unit, please?

Some entries whose results are on file:
Field Ki (entry CCCCCC[C@@H]1CC2C(CCC3(C)C(=O)CCC23)C2(C)C=CC(=O)C=C12 (some centres not stated) ) reads 8 nM

Field Ki (entry CCCCCCC[C@@H]1CC2C(CCC3(C)C(=O)CCC23)C2(C)C=CC(=O)C=C12 (some centres not stated) ) reads 7.8 nM

Field Ki (entry CCCC[C@H]1CC2C(CCC3(C)C(=O)CCC23)C2(C)C=CC(=O)C=C12 (some centres not stated) ) reads 16 nM

Field Ki (entry CCC[C@H]1CC2C(CCC3(C)C(=O)CCC23)C2(C)C=CC(=O)C=C12 (some centres not stated) ) reads 22 nM

Field Ki (entry CC[C@@H]1CC2C(CCC3(C)C(=O)CCC23)C2(C)C=CC(=O)C=C12 (some centres not stated) ) reads 4.7 nM

Field Ki (entry CC[C@H]1CC2C(CCC3(C)C(=O)CCC23)C2(C)C=CC(=O)C=C12 (some centres not stated) ) reads 19 nM

Field Ki (entry CCCCCCC[C@H]1CC2C(CCC3(C)C(=O)CCC23)C2(C)C=CC(=O)C=C12 (some centres not stated) ) reads 20 nM

Field Ki (entry CCCCC[C@H]1CC2C(CCC3(C)C(=O)CCC23)C2(C)C=CC(=O)C=C12 (some centres not stated) ) reads 11 nM

Further cases:
Field Ki (entry CCC[C@@H]1CC2C(CCC3(C)C(=O)CCC23)C2(C)C=CC(=O)C=C12 (some centres not stated) ) reads 7 nM

Field Ki (entry CCCC[C@@H]1CC2C(CCC3(C)C(=O)CCC23)C2(C)C=CC(=O)C=C12 (some centres not stated) ) reads 14 nM

Field Ki (entry CCCCC[C@@H]1CC2C(CCC3(C)C(=O)CCC23)C2(C)C=CC(=O)C=C12 (some centres not stated) ) reads 5 nM

Field Ki (entry CCCCCC[C@H]1CC2C(CCC3(C)C(=O)CCC23)C2(C)C=CC(=O)C=C12 (some centres not stated) ) reads 25 nM

* * *

Target: Aromatase (Homo sapiens, UniProt P11511)
Sequence (P11511 whole entry): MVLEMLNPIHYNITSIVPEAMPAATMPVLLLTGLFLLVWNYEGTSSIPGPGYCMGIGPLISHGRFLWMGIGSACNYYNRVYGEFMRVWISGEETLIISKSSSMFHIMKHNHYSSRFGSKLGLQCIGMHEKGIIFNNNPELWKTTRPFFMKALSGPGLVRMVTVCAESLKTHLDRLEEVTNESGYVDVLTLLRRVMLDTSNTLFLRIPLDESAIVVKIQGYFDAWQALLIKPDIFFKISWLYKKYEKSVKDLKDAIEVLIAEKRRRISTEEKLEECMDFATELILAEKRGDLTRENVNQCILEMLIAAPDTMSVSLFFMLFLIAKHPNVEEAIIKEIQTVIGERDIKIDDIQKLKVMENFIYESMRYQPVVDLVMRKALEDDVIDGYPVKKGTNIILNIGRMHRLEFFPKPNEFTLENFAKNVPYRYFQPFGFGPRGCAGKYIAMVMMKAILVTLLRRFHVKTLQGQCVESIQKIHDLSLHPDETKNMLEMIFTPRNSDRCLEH
MEASUREMENT LABEL: pIC50
Hey, just a heads up that pIC50 is the negative log base 10 of the concentration in molar.

Some entries whose results are on file:
Field pIC50 (entry CCCCC[C@H]1CC2C(CCC3(C)C(=O)CCC23)C2(C)C=CC(=O)C=C12 (some centres not stated) ) reads 6.85

Field pIC50 (entry CCCCCCC[C@H]1CC2C(CCC3(C)C(=O)CCC23)C2(C)C=CC(=O)C=C12 (some centres not stated) ) reads 6.60

Field pIC50 (entry CC[C@H]1CC2C(CCC3(C)C(=O)CCC23)C2(C)C=CC(=O)C=C12 (some centres not stated) ) reads 6.60

For the next question, use this molecule.
Field pIC50 (entry CCCC[C@@H]1CC2C(CCC3(C)C(=O)CCC23)C2(C)C=CC(=O)C=C12 (some centres not stated) ) reads 6.74

* * *

molecular target: Aromatase (Homo sapiens); test: Inactivation constant (Ki) for time-dependent inactivation of Cytochrome P450 19A1
Parameter: Ki. Scope: all listed entries.
// note: answer is a bare numeric in nM

Field Ki (entry CC[C@H]1CC2C(CCC3(C)C(=O)CCC23)C2(C)C=CC(=O)C=C12 (some centres undefined) ) reads 196

Field Ki (entry CCC[C@H]1CC2C(CCC3(C)C(=O)CCC23)C2(C)C=CC(=O)C=C12 (some centres undefined) ) reads 339

Further cases:
Field Ki (entry CCCC[C@H]1CC2C(CCC3(C)C(=O)CCC23)C2(C)C=CC(=O)C=C12 (some centres undefined) ) reads 571

Field Ki (entry CCCCCC[C@H]1CC2C(CCC3(C)C(=O)CCC23)C2(C)C=CC(=O)C=C12 (some centres undefined) ) reads 650

* * *

Target: Aromatase (Homo sapiens, UniProt P11511)
Sequence (P11511 whole entry): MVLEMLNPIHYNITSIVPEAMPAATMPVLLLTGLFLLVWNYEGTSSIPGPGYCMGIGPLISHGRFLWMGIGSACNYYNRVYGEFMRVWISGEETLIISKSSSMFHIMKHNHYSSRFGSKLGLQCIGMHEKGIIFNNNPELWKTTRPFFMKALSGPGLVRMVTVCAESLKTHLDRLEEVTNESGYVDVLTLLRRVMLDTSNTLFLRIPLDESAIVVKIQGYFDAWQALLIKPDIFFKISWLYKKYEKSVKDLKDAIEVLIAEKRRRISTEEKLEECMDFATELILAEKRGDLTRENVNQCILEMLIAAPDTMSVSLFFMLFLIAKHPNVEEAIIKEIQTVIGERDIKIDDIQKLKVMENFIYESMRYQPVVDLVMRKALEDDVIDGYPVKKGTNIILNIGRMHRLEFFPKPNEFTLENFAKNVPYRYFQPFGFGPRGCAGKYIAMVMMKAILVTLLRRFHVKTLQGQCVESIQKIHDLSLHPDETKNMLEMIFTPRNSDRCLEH
MEASUREMENT LABEL: pIC50
Hey, just a heads up that pIC50 is the negative log base 10 of the concentration in molar.

Field pIC50 (entry CCC[C@H]1CC2C(CCC3(C)C(=O)CCC23)C2(C)C=CC(=O)C=C12 (stereo partly drawn) ) reads 6.57

Field pIC50 (entry CCCCCC[C@@H]1CC2C(CCC3(C)C(=O)CCC23)C2(C)C=CC(=O)C=C12 (stereo partly drawn) ) reads 7.12

Field pIC50 (entry CCCCCC[C@H]1CC2C(CCC3(C)C(=O)CCC23)C2(C)C=CC(=O)C=C12 (stereo partly drawn) ) reads 6.55

Field pIC50 (entry CCCCCCC[C@@H]1CC2C(CCC3(C)C(=O)CCC23)C2(C)C=CC(=O)C=C12 (stereo partly drawn) ) reads 7.22

Field pIC50 (entry CC[C@@H]1CC2C(CCC3(C)C(=O)CCC23)C2(C)C=CC(=O)C=C12 (stereo partly drawn) ) reads 7.27

Field pIC50 (entry CCCC[C@H]1CC2C(CCC3(C)C(=O)CCC23)C2(C)C=CC(=O)C=C12 (stereo partly drawn) ) reads 6.70

Field pIC50 (entry CCC[C@@H]1CC2C(CCC3(C)C(=O)CCC23)C2(C)C=CC(=O)C=C12 (stereo partly drawn) ) reads 7.22

Further cases:
Field pIC50 (entry CCCCC[C@@H]1CC2C(CCC3(C)C(=O)CCC23)C2(C)C=CC(=O)C=C12 (stereo partly drawn) ) reads 7.27
